# measured.on: DNA helicase (UniProt P0ACB1)
# Sequence (P0ACB1 whole entry): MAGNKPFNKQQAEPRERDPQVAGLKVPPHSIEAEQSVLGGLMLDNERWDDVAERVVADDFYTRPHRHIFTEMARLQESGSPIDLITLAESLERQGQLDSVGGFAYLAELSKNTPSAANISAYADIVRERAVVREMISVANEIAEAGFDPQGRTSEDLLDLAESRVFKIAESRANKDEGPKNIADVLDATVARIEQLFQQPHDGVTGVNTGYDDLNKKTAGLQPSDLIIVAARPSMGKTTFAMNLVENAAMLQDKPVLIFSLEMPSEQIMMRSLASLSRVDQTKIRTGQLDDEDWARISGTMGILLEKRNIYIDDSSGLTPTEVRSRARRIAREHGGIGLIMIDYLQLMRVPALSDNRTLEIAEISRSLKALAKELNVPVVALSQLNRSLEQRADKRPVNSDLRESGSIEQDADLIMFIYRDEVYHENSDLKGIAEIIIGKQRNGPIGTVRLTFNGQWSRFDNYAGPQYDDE
# assay.comment: relative enzymatic activity vs untreated control (fraction); higher = less inhibition
# measurement.parameters: 100 µM; incubation time: 2 h at 37 C
Mark criterion not met for relative enzymatic activity values under 0.6, and criterion met for everything at or above.

compound: COC1C=COC2(C)Oc3c(C)c(O)c4c(O)c(c(C=NN5CCN(C6CCCC6)CC5)c(O)c4c3C2=O)NC(=O)C(C)=CC=CC(C)C(O)C(C)C(O)C(C)C(OC(C)=O)C1C (stereo unspecified)
measured.on: DNA helicase (UniProt P0ACB1)
category.label: criterion met

compound: CC1c2cccc(O)c2C(=O)C2=C(O)C3(O)C(=O)C(C(N)=O)=C(O)C(N(C)C)C3C(O)C21.Cl (stereo unspecified)
measured.on: DNA helicase (UniProt P0ACB1)
category.label: criterion met

compound: CCn1cc(C(=O)O)c(=O)c2cc(F)c(N3CCNCC3)cc21
measured.on: DNA helicase (UniProt P0ACB1)
category.label: criterion not met

compound: Cn1cc(-c2[nH]c3cc(NC(=O)[C@H](N)C4CCCCC4)cc4c3c2C=NNC4=O)cn1
measured.on: DNA helicase (UniProt P0ACB1)
category.label: criterion not met

compound: Cc1cc(O)c(C(=O)NC(C(=O)NC2C(=O)N3C(C(=O)O)=C(CSc4nnnn4C)CSC23)c2ccc(O)cc2)cn1 (stereo unspecified)
measured.on: DNA helicase (UniProt P0ACB1)
category.label: criterion met

compound: CC1COc2c(C3(N)CC3)c(F)cc3c(=O)c(C(=O)O)cn1c23.CS(=O)(=O)O (stereo unspecified)
measured.on: DNA helicase (UniProt P0ACB1)
category.label: criterion not met

compound: CN[C@@H]1[C@H](O[C@H]2[C@H](O[C@@H]3[C@@H](O)[C@H](O)[C@@H](NC(=N)N)[C@H](O)[C@H]3NC(=N)N)O[C@@H](C)[C@]2(O)CO)O[C@@H](CO)[C@H](O)[C@H]1O.CN[C@@H]1[C@H](O[C@H]2[C@H](O[C@@H]3[C@@H](O)[C@H](O)[C@@H](NC(=N)N)[C@H](O)[C@H]3NC(=N)N)O[C@@H](C)[C@]2(O)CO)O[C@@H](CO)[C@H](O)[C@H]1O
measured.on: DNA helicase (UniProt P0ACB1)
category.label: criterion not met

compound: CS(=O)(=O)c1ccc(C(O)C(CF)NC(=O)C(Cl)Cl)cc1 (stereo unspecified)
measured.on: DNA helicase (UniProt P0ACB1)
category.label: criterion not met

compound: CCCCCCCCCCCCC[N+](C)(C)Cc1ccccc1
measured.on: DNA helicase (UniProt P0ACB1)
category.label: criterion not met

compound: CC1C(NC(=O)C(=NOC(C)(C)C(=O)O)c2csc(N)n2)C(=O)N1S(=O)(=O)O (stereo unspecified)
measured.on: DNA helicase (UniProt P0ACB1)
category.label: criterion not met

compound: COC12C(COC(N)=O)C3=C(C(=O)C(C)=C(N)C3=O)N1CC1NC12 (stereo unspecified)
measured.on: DNA helicase (UniProt P0ACB1)
category.label: criterion met

compound: CN1CCN(c2c(F)cc3c(=O)c(C(=O)O)cn4c3c2OCN4C)CC1
measured.on: DNA helicase (UniProt P0ACB1)
category.label: criterion not met

compound: COc1c(N2CCNC(C)C2)c(F)cc2c(=O)c(C(=O)O)cn(C3CC3)c12 (stereo unspecified)
measured.on: DNA helicase (UniProt P0ACB1)
category.label: criterion not met

compound: CO/N=C(\C(=O)N[C@@H]1C(=O)N2C(C(=O)O)=C(C[N+]3(C)CCCC3)CS[C@H]12)c1csc(N)n1
measured.on: DNA helicase (UniProt P0ACB1)
category.label: criterion not met

compound: CO[C@@]12[C@@H]3N[C@@H]3CN1C1=C(C(=O)C(N)=C(C)C1=O)[C@@H]2COC(N)=O
measured.on: DNA helicase (UniProt P0ACB1)
category.label: criterion met

compound: O=C1NCCN1c1ncc([N+](=O)[O-])s1
measured.on: DNA helicase (UniProt P0ACB1)
category.label: criterion not met

compound: CCCC[P+](CCCC)(CCCC)Cc1ccc(NC(=O)[C@H](Cc2ccc3ccccc3c2)N/C(=N/C2CCCCC2)NC2CCCCC2)cc1
measured.on: DNA helicase (UniProt P0ACB1)
category.label: criterion not met

compound: O=C(O)c1cn(C2CC2)c2cc(N3CCNCC3)c(F)cc2c1=O
measured.on: DNA helicase (UniProt P0ACB1)
category.label: criterion met

compound: C[C@H]1c2cccc(O)c2C(=O)C2=C(O)[C@]3(O)C(=O)[C@@H](C(N)=O)C(=O)[C@@H](N(C)C)[C@@H]3[C@@H](O)[C@@H]21
measured.on: DNA helicase (UniProt P0ACB1)
category.label: criterion not met

compound: CCn1cc(C(=O)O)c(=O)c2cc(F)c(N3CCNCC3)nc21
measured.on: DNA helicase (UniProt P0ACB1)
category.label: criterion not met

compound: CN(C)c1ccc(O)c2c1C[C@@H]1C[C@@H]3[C@@H](N(C)C)C(=O)C(C(N)=O)=C(O)[C@]3(O)C(=O)[C@H]1C2=O
measured.on: DNA helicase (UniProt P0ACB1)
category.label: criterion not met

compound: Cc1cn([C@H]2C[C@H](N=[N+]=[N-])[C@@H](CO)O2)c(=O)[nH]c1=O
measured.on: DNA helicase (UniProt P0ACB1)
category.label: criterion met

compound: N[C@@H]1[C@H]2CN(c3nc4c(cc3F)c(=O)c(C(=O)O)cn4-c3ccc(F)cc3F)C[C@@H]12
measured.on: DNA helicase (UniProt P0ACB1)
category.label: criterion not met

compound: Oc1c(Cl)cc(Cl)c2cccnc12
measured.on: DNA helicase (UniProt P0ACB1)
category.label: criterion not met

compound: CON=C(C(=O)NC1C(=O)N2C(C(=O)[O-])=C(COC(N)=O)CSC12)c1ccco1.[Na+] (stereo unspecified)
measured.on: DNA helicase (UniProt P0ACB1)
category.label: criterion not met

compound: CC[C@H]1OC(=O)[C@H](C)[C@@H](O[C@H]2C[C@@](C)(OC)[C@@H](O)[C@H](C)O2)[C@H](C)[C@@H](O[C@@H]2O[C@H](C)C[C@H](N(C)C)[C@H]2O)[C@](C)(O)C[C@@H](C)CN(C)[C@H](C)[C@@H](O)[C@]1(C)O
measured.on: DNA helicase (UniProt P0ACB1)
category.label: criterion not met

compound: Nc1nc(C(=CCC(=O)O)C(=O)NC2C(=O)N3C(C(=O)O)=CCSC23)cs1 (stereo unspecified)
measured.on: DNA helicase (UniProt P0ACB1)
category.label: criterion not met

----------
// reported relative enzymatic activity per item
# measured.on: MurD (UniProt P14900)
# Sequence (P14900 whole entry): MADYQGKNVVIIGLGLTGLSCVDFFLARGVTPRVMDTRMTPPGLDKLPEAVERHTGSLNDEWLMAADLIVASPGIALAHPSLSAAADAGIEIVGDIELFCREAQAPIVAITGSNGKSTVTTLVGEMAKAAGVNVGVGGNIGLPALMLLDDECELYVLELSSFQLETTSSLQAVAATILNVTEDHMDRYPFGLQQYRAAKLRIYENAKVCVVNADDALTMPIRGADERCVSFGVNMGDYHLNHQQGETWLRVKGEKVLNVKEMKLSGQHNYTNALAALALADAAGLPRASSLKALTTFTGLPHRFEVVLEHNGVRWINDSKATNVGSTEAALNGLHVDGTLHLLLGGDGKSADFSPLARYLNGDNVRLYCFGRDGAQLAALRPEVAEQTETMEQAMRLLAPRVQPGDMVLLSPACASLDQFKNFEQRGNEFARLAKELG
# assay.comment: relative enzymatic activity vs untreated control (fraction); higher = less inhibition
# measurement.parameters: 100 µM; incubation time: 2 h at 37 C

molecule: CO[C@@]12[C@@H]3N[C@@H]3CN1C1=C(C(=O)C(N)=C(C)C1=O)[C@@H]2COC(N)=O
relative enzymatic activity: 0.615
--
molecule: CC(C)[C@@H](CC[C@@H](C)[C@H]1CC[C@H]2[C@@H]3[C@H](O)C[C@H]4C[C@@H](NCCCNCCCCN)CC[C@]4(C)[C@H]3CC[C@]12C)OS(=O)(=O)O
relative enzymatic activity: 0.6
--
molecule: COc1ccc2c(c1OC)C(=O)OC2C1c2c(cc3c(c2OC)OCO3)CCN1C.Cl (configuration not stated)
relative enzymatic activity: 0.684
--
molecule: CN1CCN(c2cc3c(cc2F)c(=O)c(C(=O)O)cn3-c2ccc(F)cc2)CC1.Cl
relative enzymatic activity: 0.566
--
molecule: CN(C)C1C(O)=C(C(N)=O)C(=O)C2(O)C(O)=C3C(=O)c4c(O)ccc(Cl)c4C(O)C3CC12.Cl (configuration not stated)
relative enzymatic activity: 0.593
--
molecule: CC[C@@H]1OC(=O)[C@H](C)[C@@H](O[C@H]2C[C@@](C)(OC)[C@@H](O)[C@H](C)O2)[C@H](C)[C@@H](O[C@@H]2O[C@H](C)C[C@H](N(C)C)[C@H]2O)[C@](C)(O)C[C@@H](C)/C(=N\OCOCCOC)[C@H](C)[C@@H](O)[C@]1(C)O
relative enzymatic activity: 0.583
--
molecule: CCCCCCCCCCCCCCCC[N+](C)(C)C
relative enzymatic activity: 0.173
